These compounds were tested on cAMP and cAMP-inhibited cGMP 3',5'-cyclic phosphodiesterase 10A (Homo sapiens); IC50 is the recorded read-out.
RECORDED_METRIC: IC50 (nM)

Example entries and their recorded answers appear below.
COMPOUND: COCCN(C)C(=O)c1cnn(C)c1C(=O)N[C@@H]1CCn2cc(-c3ccccc3)nc2C1 [Roche-Dataset for PDE10A, Compound 112]
READING_UNIT: nM
IC50: 34

COMPOUND: Cc1c(Cl)cc(OCC(F)(F)F)c2nc(CCc3nc(N4CCCC4)nn3C)nn12 [Roche-Dataset for PDE10A, Compound 119]
READING_UNIT: nM
IC50: 0.5

A. COCCNC(=O)c1nc(C2CC2)cnc1Nc1cncnc1 [Roche-Dataset for PDE10A, Compound 946]
B. Cn1ncc(C(=O)N2CCC2)c1C(=O)Nc1ccn(Cc2ccncc2)n1 [Roche-Dataset for PDE10A, Compound 978]
C. CCCCc1cc(NC(=O)c2c(C(=O)N3CCC3)cnn2C)[nH]n1 [Roche-Dataset for PDE10A, Compound 985]
D. Cn1cc(NC(=O)c2nc(C3CC3)ccc2Nc2cncnc2)c(C(=O)N2CCC2)n1 [US8703768, 30]
List the 4 entries from lowest IC50 to highest IC50 value. Use the labels to give the requested order.
D, B, A, C
(D: 33 nM, B: 192 nM, A: 2540 nM, C: 4900 nM)
